Target: GST-Aq-NF-kB (Amphimedon queenslandica, UniProt A9Y5G7 2-389)
Sequence: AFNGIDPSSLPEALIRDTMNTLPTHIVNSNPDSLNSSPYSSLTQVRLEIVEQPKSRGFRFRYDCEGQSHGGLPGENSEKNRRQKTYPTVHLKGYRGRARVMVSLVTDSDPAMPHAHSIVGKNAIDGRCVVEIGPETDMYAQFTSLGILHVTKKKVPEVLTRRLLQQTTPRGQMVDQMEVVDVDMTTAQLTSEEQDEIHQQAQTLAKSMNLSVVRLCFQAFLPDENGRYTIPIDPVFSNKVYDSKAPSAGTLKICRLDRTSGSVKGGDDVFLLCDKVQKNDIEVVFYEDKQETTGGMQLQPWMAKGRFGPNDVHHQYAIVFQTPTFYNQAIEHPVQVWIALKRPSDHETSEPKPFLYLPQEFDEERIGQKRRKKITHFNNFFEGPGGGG
Test: protein-binding microarray (PBM); PBM: ~300 nM protein, 6 mM HEPES pH 7.8, 80 mM KCl, 0.5 mM EDTA, 0.5 mM EGTA, 6% glycerol, 35 ng/ul poly-dIdC, 1% milk, 1 h, room temperature; Ap Aiptasia and Nv Nematostella (sea anemones) / Co Capsaspora / Aq Amphimedon (sponge) / Dm Drosophila / Hu human; RHD is the Rel homology domain; high values mean tight binding
Conditions: dsDNA, one strand shown
1 if binding signal is below 5 z-score. 0 if not; exact matches included in 0.

A selection of reference data follows.
{"columns": ["sequenceCode", "assignedLabel"],
 "data": [
  ["CCGATTAACATCACCCATCCCCCTGATGTTAATCGGGTCTTGATTCGCTTGACGCTGCTG", 1],
  ["CCGATTAACATCAAATTCCCCCCTGATGTTAATCGGGTCTTGATTCGCTTGACGCTGCTG", 0]
]}

Query :: In the record for `CCGATTAACATCAGGGAAGGCCCTGATGTTAATCGGGTCTTGATTCGCTTGACGCTGCTG` , is binding signal less than 5 z-score?
Result :: 0
